The values you see were collected from paper PMC10397247.

- TARGET UNDER TEST: T1, 4H796-bA
- T1 chain: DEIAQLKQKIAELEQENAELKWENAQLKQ
- TEST NAME: two-hybrid library CCNG1;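 further: natural log of median RNA to DNA barcode read ratio; higher means stronger binding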
READOUT NAME: interaction score
Just the number, please, no unit after it.

Use the examples below as a reference point.
>>> measured_number("DEIQQLEQKNQELKQKIQELKWENQELKQ [4H492-bN]")
0.0979
>>> measured_number("DKIAQLEQKNAELEQEIAELKWENAQLKQ [4H2444-bA]")
-0.412
>>> measured_number("DEIAQLEQKIAELEQEIAELEWKNAQLKQ [4H264-bA]")
-0.521

Give recorded interaction score. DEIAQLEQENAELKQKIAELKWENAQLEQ [4H235-bA]
-0.862

Give recorded interaction score. DKIAQLKQEIAELEQENAELKWEIAQLEQ [4H2585-bA]
-1.49

Give recorded interaction score. DKNAQLEQKIAELEQKNAELEWKIAQLEQ [4H3381-bA]
-0.941

Give recorded interaction score. DEIAQLEQEIAELEQKNAELEWKNAQLKQ [4H56-bA]
-0.775

Give recorded interaction score. DKIAQLKQENAELKQEIAELEWKNAQLKQ [4H2760-bA]
-0.576

Give recorded interaction score. DKIAQLKQKIAELEQKIAELKWENAQLEQ [4H2859-bA]
-0.855

Give recorded interaction score. DKIAQLKQKIAELKQKNAELEWENAQLEQ [4H2931-bA]
-0.693

Give recorded interaction score. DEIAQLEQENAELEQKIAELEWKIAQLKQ [4H166-bA]
-0.288

Give recorded interaction score. DKIAQLEQEIAELKQKNAELEWEIAQLKQ [4H2162-bA]
-1.31

Give recorded interaction score. DKNAQLEQKIAELEQKIAELEWENAQLKQ [4H3364-bA]
0.137

Give recorded interaction score. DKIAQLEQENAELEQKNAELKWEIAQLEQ [4H2233-bA]
-1.42
